- Target: Human immunodeficiency virus type 1 protease (Human immunodeficiency virus 1, UniProt Q72874)
- Method Notes: Inhibitory concentration against TL3-resistant HIV(V771) mutant
Measured Attribute: IC50 (nM)
Number in nM, nothing else.

Reported IC50 for CC(=O)N[C@@H](Cc1ccc(O)cc1)C(=O)N[C@H](C(=O)N[C@@H](Cc1ccccc1)[C@@H](O)C(=O)N[C@H]1Cc2ccc(cc2)OCCCNC(=O)[C@H](C(C)C)NC1=O)C(C)C : what is it?
70

###

- Target: Human immunodeficiency virus type 1 protease (Human immunodeficiency virus 1, UniProt Q72874)
- Method Notes: Inhibitory concentration against wild-type human immunodeficiency virus (HIV-WT) protease
Starred links: 1 amine or outer side, 2 acyl side, 3 side chain; linkers in the order of their positions; H or OH if unused. Non-standard residues stand in square brackets, D forms with d. Residues, ends and D or L forms follow the SMILES beside them. β3hPhe(2R-OH) = O=C([C@H](O)[C@H](Cc1ccccc1)N[*:1])[*:2]
# pIC50 listing for each entry below
Worth noting: pIC50 values are minus log10 of concentrations stated in mol/L.

Recorded pIC50, per entry:
# Compound, Numeric Result
measured = [
    ("CC(=O)N[C@@H](Cc1ccc(O)cc1)C(=O)N[C@H](C(=O)N[C@@H](Cc1ccccc1)[C@@H](O)C(=O)N[C@@H](Cc1ccc(O)cc1)C(=O)N[C@H](C(N)=O)C(C)C)C(C)C (Ac-YV[β3hPhe(2R-OH)]YV-NH2)", 6.67),
    ("COC(=O)[C@H](O)[C@H](Cc1ccccc1)NC(=O)[C@@H](NC(=O)[C@H](Cc1c[nH]c2ccccc12)NC(C)=O)C(C)C", 4.85),
]

Next compound, pIC50 to be filled in.
Reported pIC50 for COC(=O)[C@H](O)[C@H](Cc1ccccc1)NC(=O)[C@@H](NC(=O)[C@H](Cc1ccccc1)NC(C)=O)C(C)C : what is it?
3.95
